Data credit: PubChem BioAssay (NCI)

Listed next: entries and their corresponding growth.
Tested on: SK-MEL-2 melanoma
experimental protocol: NCI-60 one-dose screen, 48 h (100 = growth as untreated, 0 = no growth, -100 = all killed)
measurement setup: 10 µM unless noted
Compounds without any hit were thinned out: in the full panel of roughly 83,000, 20% have a hit.
Use % as the unit, but write only the number.

Study these solved cases before continuing.
CCOC(=O)c1c(-c2ccc(Cl)cc2)c(C#N)c2c(C#N)c(N)nn2c1N: 52.5
COc1cc2c(c(OC)c1OC)C(=O)CC(c1cccc(NC(=O)c3ccccc3Br)c1)O2 (centres undefined): 75.8
C=C1C(=O)O[C@H]2[C@H]1CC/C(CNC(=O)c1cc3ccccc3[nH]1)=C\CC[C@@]1(C)O[C@@H]21: -60.8

For reference, reported growth for C=C(CO)[C@@H]1CC[C@]2(COC3CCCCO3)CC[C@]3(C)[C@H](CC[C@@H]4[C@@]5(C)C=C(C=O)C(=O)C(C)(C)[C@@H]5CC[C@]43C)[C@@H]12 (some centres undefined) stands at -57.3
